# Tested on: U251 CNS
# measurement_notes: NCI-60 one-dose screen, 48 h
# test_context: 10 µM unless noted
The panel holds about 83,000 compounds, 20% with a hit somewhere; the sample as a whole holds those more often. Activity calls are given as the source filed them. Rule for the calls: active = growth percent below 10; inactive = the rest.
Reply using exactly one outcome from active, inactive

Solved entries (count: 8):
INSERT INTO results (compound, group_label) VALUES
  ('Cc1ccc2sc3c(c2c1)OC(N)=C(C#N)C3c1cccc(F)c1 (configuration not stated)', 'active'),
  ('COc1cc(Nc2c(C#N)cnn3cc(-c4cnn(CC(C)(C)O)c4)cc23)ccc1Cl', 'inactive'),
  ('CCCCCc1ccc(S(=O)(=O)Nc2cc(-c3csc(NC(=O)CN4CCN(CCO)CC4)n3)ccc2OC)cc1', 'active'),
  ('O=C(Cn1cc[n+](CC(=O)c2ccc(-c3ccccc3)cc2)c1)Nc1cccc2cccnc12', 'inactive'),
  ('Cc1ccc(-n2cc(/C=N/NC(=O)c3nc(N)n[nH]3)c(-c3ccc(S(C)(=O)=O)cc3)n2)cc1', 'inactive'),
  ('CC(C)(C)c1ccc(C(=O)Nc2sc3c(c2C(N)=O)CC/C(=N\O)C3)cc1', 'inactive'),
  ('COc1cc(/C=C/C(=O)c2ccc(NC(=O)CSc3nnc(-c4ccc(-c5nc6ccc(Cl)cc6[nH]5)cc4)o3)cc2)cc(OC)c1OC', 'inactive'),
  ('CC(C)(C)c1ccc(C(=O)Nc2nc3ccc(O)cc3s2)cc1', 'inactive');

Lookup: Would you mind telling me which call this test gave Oc1[nH]c2ccccc2c1Nn1c(N=N/C=c2/ccc3c(c2)C=NN=3)n[nH]c1=S ?
Found: inactive

Lookup: Would you mind telling me which call this test gave COc1ccc(C2CC(c3ccc(Nc4nc(NCCO)nc(N5CCOCC5)n4)cc3)=Nc3c(N)nc(N)nc3N2)cc1 (configuration not stated) ?
Found: inactive

Lookup: Would you mind telling me which call this test gave COc1ccc(Cn2cc3c(c2-c2cc(OC)c(OC)c(OC)c2)CCc2c(CN4CCOCC4)noc2-3)cc1 ?
Found: inactive

Lookup: Would you mind telling me which call this test gave CC(C)(C)CC(C)(C)n1nnnc1C(Nc1nccs1)c1cc2cccc3ccc4cccc1c4c32 (configuration not stated) ?
Found: inactive

Lookup: Would you mind telling me which call this test gave CCc1cccc(NC(=O)CNc2cc(S(=O)(=O)N(C)C)cc(C)c2C)c1 ?
Found: inactive

Lookup: Would you mind telling me which call this test gave CN1CCN(Cc2ccc(NC(=O)c3cncc(C#Cc4cnc5ccc(N6CCN(C)CC6)nn45)c3)cc2C(F)(F)F)CC1 ?
Found: active

Lookup: Would you mind telling me which call this test gave COc1cc(OC)cc(C(=O)Nc2sc3c(c2C(N)=O)CCC(=O)C3)c1 ?
Found: inactive

Lookup: Would you mind telling me which call this test gave Cc1ccc(NC(=O)CNc2cc(C(N)=O)cc(F)c2C)c(Cl)c1 ?
Found: inactive

Lookup: Would you mind telling me which call this test gave COC(=O)C[Se]C(=O)Cc1c(C)n(C(=O)c2ccc(Cl)cc2)c2ccc(OC)cc12 ?
Found: inactive

* * *

# Test system: SF-268 CNS
# measurement_notes: NCI-60 one-dose screen, 48 h (100 = growth as untreated, 0 = no growth, -100 = all killed)
# test_context: 10 µM unless noted
The panel holds about 83,000 compounds, 20% with a hit somewhere; the sample as a whole holds those more often.
Each entry falls into one class according to its growth; the ranges are label 0: < 30%; label 1: ≥ 30% and < 70%; label 2: ≥ 70%

INSERT INTO assay_data (compound, experimental_system, group_label) VALUES
  ('CC1(C)[C@@H](O)CC[C@]2(C)[C@H]3CC[C@@H]4[C@H]5[C@H](C(=O)/C=C\c6ccccn6)CC[C@]5(O)CC[C@@]4(C)[C@]3(C)CC[C@@H]12', 'SF-268 CNS', 'label 1'),
  ('O=S(=O)(NCCCNc1nccc(-c2[nH]c(-c3ccccc3)nc2-c2ccc(Cl)c(O)c2)n1)c1ccc(Br)cc1', 'SF-268 CNS', 'label 1'),
  ('O=C1[C@H]2Cc3c([nH]c4ccccc34)[C@@H](c3ccc(Br)cc3)N2C(=O)CN1C1CCN(CC2CCCCC2)CC1', 'SF-268 CNS', 'label 0');

Consider the additional compound presented here.
Lookup: Categorize the following entry: CN1c2ccccc2Sc2cc(C=C(C#N)C#N)ccc21
Found: label 2
